Target: human Nav1.7 (Homo sapiens (Human), UniProt Q15858)
Sequence (Q15858 whole entry): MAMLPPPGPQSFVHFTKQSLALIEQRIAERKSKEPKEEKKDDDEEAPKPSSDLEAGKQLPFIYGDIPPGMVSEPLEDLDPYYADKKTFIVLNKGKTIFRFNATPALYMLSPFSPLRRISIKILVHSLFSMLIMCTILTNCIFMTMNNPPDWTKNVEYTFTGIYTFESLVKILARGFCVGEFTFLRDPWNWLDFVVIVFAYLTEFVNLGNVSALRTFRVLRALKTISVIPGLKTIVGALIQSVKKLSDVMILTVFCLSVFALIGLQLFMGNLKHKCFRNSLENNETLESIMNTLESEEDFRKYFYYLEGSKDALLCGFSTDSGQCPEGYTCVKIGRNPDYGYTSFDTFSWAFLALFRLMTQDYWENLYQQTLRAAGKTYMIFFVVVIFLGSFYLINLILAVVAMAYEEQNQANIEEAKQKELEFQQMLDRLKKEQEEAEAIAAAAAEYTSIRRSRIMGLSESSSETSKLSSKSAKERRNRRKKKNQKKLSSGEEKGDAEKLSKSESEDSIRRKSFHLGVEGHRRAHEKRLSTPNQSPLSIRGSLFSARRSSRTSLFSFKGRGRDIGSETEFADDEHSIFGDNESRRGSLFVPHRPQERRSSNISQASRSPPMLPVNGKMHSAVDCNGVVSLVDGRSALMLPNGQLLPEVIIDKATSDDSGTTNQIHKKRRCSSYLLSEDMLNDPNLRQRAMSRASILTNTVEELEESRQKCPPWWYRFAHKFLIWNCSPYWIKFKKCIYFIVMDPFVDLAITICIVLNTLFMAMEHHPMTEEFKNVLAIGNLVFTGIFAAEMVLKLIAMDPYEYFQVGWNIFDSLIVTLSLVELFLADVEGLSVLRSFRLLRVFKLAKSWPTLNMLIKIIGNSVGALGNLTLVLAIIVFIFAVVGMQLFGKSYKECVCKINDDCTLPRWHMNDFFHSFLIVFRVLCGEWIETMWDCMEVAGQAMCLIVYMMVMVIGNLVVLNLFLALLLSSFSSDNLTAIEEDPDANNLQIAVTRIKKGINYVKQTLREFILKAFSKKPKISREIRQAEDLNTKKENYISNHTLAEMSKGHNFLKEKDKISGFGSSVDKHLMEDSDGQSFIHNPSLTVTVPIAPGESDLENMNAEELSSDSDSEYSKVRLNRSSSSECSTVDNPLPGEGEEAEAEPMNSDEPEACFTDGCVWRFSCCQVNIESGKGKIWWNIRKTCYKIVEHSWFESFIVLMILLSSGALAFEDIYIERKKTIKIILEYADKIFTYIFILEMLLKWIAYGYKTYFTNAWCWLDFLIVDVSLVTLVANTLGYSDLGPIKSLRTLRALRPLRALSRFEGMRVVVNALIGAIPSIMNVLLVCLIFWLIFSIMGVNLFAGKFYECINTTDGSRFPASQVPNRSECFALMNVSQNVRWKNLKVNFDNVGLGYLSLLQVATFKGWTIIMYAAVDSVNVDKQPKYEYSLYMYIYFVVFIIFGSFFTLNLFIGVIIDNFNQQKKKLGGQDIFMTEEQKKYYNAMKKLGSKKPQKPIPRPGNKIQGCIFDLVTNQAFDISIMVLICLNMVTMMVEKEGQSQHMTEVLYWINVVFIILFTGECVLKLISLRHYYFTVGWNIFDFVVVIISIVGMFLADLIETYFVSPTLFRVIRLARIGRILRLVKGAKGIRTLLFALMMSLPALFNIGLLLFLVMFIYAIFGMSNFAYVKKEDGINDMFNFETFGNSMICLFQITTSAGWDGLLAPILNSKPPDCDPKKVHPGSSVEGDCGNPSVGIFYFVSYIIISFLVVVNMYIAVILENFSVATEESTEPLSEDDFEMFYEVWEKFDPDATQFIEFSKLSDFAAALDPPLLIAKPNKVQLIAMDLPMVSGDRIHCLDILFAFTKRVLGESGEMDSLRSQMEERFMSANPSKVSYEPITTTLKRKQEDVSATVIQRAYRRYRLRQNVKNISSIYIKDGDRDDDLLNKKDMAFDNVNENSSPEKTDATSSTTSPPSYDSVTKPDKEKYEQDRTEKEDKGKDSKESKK
Test: Nav 1.7 in vitro PatchXpress (PX) assay
Type: cell-based
Settings: in-vitro Nav 1.7 PX data
Below, each of the molecules is paired with its reported log10(IC50) value.
Log scale reminder: IC50 in µM, then log10 taken.

Please review the following examples before continuing.
{"structureString": "CS(=O)(=O)NC(=O)c1ccc(-c2cnc(Oc3cc(Cl)cc(Cl)c3)c(Cl)c2)c(Cl)c1", "log10(IC50)": -1.40}
{"structureString": "Cc1cc(C(=O)NS(C)(=O)=O)c(F)cc1-c1cnc(OCC(F)F)c(Cl)c1", "log10(IC50)": 0.39}
{"structureString": "COc1cc(Oc2ncc(-c3cc(F)c(C(=O)NS(C)(=O)=O)cc3OC)cc2Cl)c(Cl)cc1Cl", "log10(IC50)": -1.04}
{"structureString": "CCCS(=O)(=O)NC(=O)c1cc(C)c(-c2cnc(OC3CCC3)c(Cl)c2)cc1F", "log10(IC50)": -0.96}
{"structureString": "COc1cc(C(=O)NS(C)(=O)=O)c(F)cc1-c1cnc(Oc2c(Cl)cccc2Cl)c(Cl)c1", "log10(IC50)": -1.44}

Annotate the molecule COc1cc(C(=O)NS(C)(=O)=O)c(F)cc1-c1cnc(Oc2ccc(F)c(C)c2)c(Cl)c1 with its measured log10(IC50). -1.04

Determine its reported log10(IC50): CCS(=O)(=O)NC(=O)c1ccc(-c2cnc(OC3CCC3)c(Cl)c2)c(OC)c1 -0.91

Please report the measured log10(IC50) for CCS(=O)(=O)NC(=O)c1ccc(-c2cnc(O[C@H]3C[C@H]4CC[C@@H]3C4)c(Cl)c2)c(OC)c1 -1.07

Where do the numbers come from? From patent US9663508B2.
